assay: growth inhibitors of H69AR lung tumor, primary screen, human, duplicate replicates (AID 580); settings: H69AR lung tumor cells viability, ATP luminescence, 72 h; at 10 µM;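 note: 100% = mean luminescence of untreated wells and 0% = no signal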
Calls of active or inactive are those of the source.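 Rule for the calls: active = viability at or under a set limit in both replicates, limit being median viability minus 3 SD (cut at about 48% in these data, passing the limit was not always enough); inconclusive = at or under the limit in just one replicate; inactive = at or above the limit in both replicates.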
Pick from active, inactive when you respond.

Below are worked cases with known answers.
{"compound": "CC1(C)CC(=O)C=C(NCc2ccncc2)C1", "qualitative label": "inactive"}
{"compound": "Clc1ccc2c(c1)[C@H]1OCC[C@H]1[C@@H](c1ccco1)N2", "qualitative label": "inactive"}
{"compound": "COc1nc(NCCc2ccc(OC)c(OC)c2)nc(NC(C)(C)CO)n1", "qualitative label": "inactive"}
{"compound": "Cc1cccc(NC(=O)c2cc(NC(=O)c3ccco3)ccc2Cl)n1", "qualitative label": "inactive"}
{"compound": "CCCNC(=O)C1=C(C)C(=O)OC12CCC(C)CC2 (stereo unspecified)", "qualitative label": "inactive"}
{"compound": "O=C(Nc1ccc(Cl)cc1)N1CCSCC1", "qualitative label": "inactive"}

Please look at the following compound next.
What classification did CC(NC(=O)NC12CC3CC(CC(C3)C1)C2)C1CCCO1 (stereo unspecified) end up with in this test?
inactive

====

Entries and their viability values follow.
test: HUVEC growth inhibition – cell-based, human, primary screen (AID 575); settings: HUVEC proliferation, CellTiter-Glo luminescence, 72 h; at 10 µM; stronger effect = lower value;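 note: 100% = median of untreated cell wells with 0.1% DMSO on each plate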
The source made the active and inactive calls.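 How the source made its calls: active means viability at or below 30% in both replicate assays; inconclusive means viability at or below 30% in just one of the two assays; inactive means the rest.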

{"compound": "Cc1cc(C(=O)Nc2c(C)n(C)n(-c3ccccc3)c2=O)c(C)o1", "viability": "105% (inactive)"}

Give its viability value. Item: O=C(NC1CCCCC1)c1nc2c(nnn2Cc2ccccc2Cl)c(=O)[nH]1
104% (inactive)

Again, but for O=c1c(O)c(-c2ccc(O)cc2O)oc2cc(O)cc(O)c12
97.5% (inactive)

Again, but for COc1ccccc1C1C(C#N)=C(N)Oc2cc(C)n(Cc3ccccn3)c(=O)c21 (stereo unspecified)
93.9% (inactive)

Again, but for O=C(Cn1cnc2c(cnn2-c2ccccc2)c1=O)NCCc1ccccc1
91.6% (inactive)

Again, but for CCc1ccccc1N1C(=O)C2CC(C)=C(C)CC2C1=O (stereo unspecified)
104% (inactive)

Again, but for O=C(Nc1ccccc1)N(CCCN1CCOCC1)Cc1cc2cc3c(cc2[nH]c1=O)OCCO3
82.3% (inactive)

Again, but for Cc1ccccc1N1CC(c2nc3ccccc3[nH]2)CC1=O (stereo unspecified)
87.7% (inactive)

Again, but for CC1CC(C)CN(CCCNC(=O)c2ccc3c(c2)NC(=O)C(N2CCCCC2)S3)C1 (stereo unspecified)
88.6% (inactive)

Again, but for CCOc1nc(OCC)nc(N2CCC(C)CC2)n1
108% (inactive)

Again, but for O=C(Cc1ccccc1)Nc1nnc(-c2cccs2)s1
96.8% (inactive)

====

experiment: growth inhibitors of H69AR lung tumor, primary screen, human, duplicate replicates (AID 580); settings: H69AR lung tumor cells viability, ATP luminescence, 72 h; at 10 µM;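 note: 100% = mean luminescence of untreated wells and 0% = no signal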
Calls of active or inactive are those of the source.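 Rule for the calls: active = viability at or under a set limit in both replicates, limit being median viability minus 3 SD (cut at about 48% in these data, passing the limit was not always enough); inconclusive = at or under the limit in just one replicate; inactive = at or above the limit in both replicates.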
Pick from active, inactive when you respond.

Below are worked cases with known answers.
{"compound": "Cc1nc2cc(N3CCCCC3)c(NC(=O)c3cccnc3)cc2c(=O)n1Cc1ccccc1", "qualitative label": "active"}
{"compound": "COc1ccccc1NC(=O)Cc1noc(CSc2cc(C)c3ccccc3n2)n1", "qualitative label": "inactive"}
{"compound": "CC1(C)CC(=O)C(CC(=O)NC(=O)NCc2ccccc2)=C(O)C1", "qualitative label": "inactive"}
{"compound": "COc1ccc(CCN2C(=O)C3C4C=CC(C4)C3C2=O)cc1OC (stereo not given)", "qualitative label": "inactive"}

Please look at the following compound next.
What classification did O=C(COC(=O)C12CC3CC(CC(C3)C1)C2)NCc1ccco1 end up with in this test?
inactive

====

Entries and their inhibition values follow.
experiment: 384-well plate pilot, post-Golgi transport modulator project, inhibition of yeast transport mutant growth (AID 636); conditions: absorbance 615 nm, about 18 h, stronger effect = higher value
Calls of active or inactive are those of the source. Rule as the data show it: active = inhibition above about 31%; inactive = the rest.

{"compound": "CCOC(=O)c1c(N)nn(C(=O)C(C)C)c1-c1ccccc1", "assay endpoint": "inhibition", "meas value": "-5.95% (inactive)"}

Give its inhibition value. Item: CCN(CC)C(c1ccc(C)cc1)c1nnnn1C1CCCCC1 (stereo not drawn)
-6.13% (inactive)

Again, but for O=C(O)c1ccc(COc2c(F)c(F)c(F)c(F)c2F)o1
0.14% (inactive)

Again, but for O=C(NCc1cccnc1)/C(=N\O)c1ccccc1
-6.08% (inactive)

Again, but for Cc1c(N=C2SCC(=O)N2c2c(C)n(C)n(-c3ccccc3)c2=O)c(=O)n(-c2ccccc2)n1C
-1.43% (inactive)

Again, but for COC(=O)Oc1c(Br)c(=O)oc2ccccc12
-0.4% (inactive)

Again, but for COc1ccc(CCN2CC(O)=C(c3nc4ccccc4c(=O)[nH]3)C2=N)cc1OC
-1.95% (inactive)

====

experiment: growth inhibitors of H69AR lung tumor, primary screen, human, duplicate replicates (AID 580); settings: H69AR lung tumor cells viability, ATP luminescence, 72 h; at 10 µM; stronger effect = lower value;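 note: 100% = mean luminescence of untreated wells and 0% = no signal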
We label by threshold. Values of viability strictly beneath 90% are T. Values of 90% and up are F.

Below are worked cases with known answers.
{"compound": "COc1ccc(Cl)cc1-c1n[nH]c(=S)o1", "qualitative label": "F"}
{"compound": "Clc1cccc(Cl)c1COc1ccncc1", "qualitative label": "F"}
{"compound": "O=C(NCc1ccco1)C1Cc2ccccc2CN1S(=O)(=O)c1ccccc1F (configuration not stated)", "qualitative label": "T"}
{"compound": "COc1ccc(C2C=C(c3ccccc3)Nc3ncnn32)cc1 (configuration not stated)", "qualitative label": "F"}

Please look at the following compound next.
Does this compound meet the criterion viability < 90%? Cn1c(=O)c2c(ncn2CCO)n(C)c1=O
F

====

Entries and their differential viability (reversal) values follow.
test: reversal of MRP1-mediated doxorubicin resistance, pilot screen, H69AR cells, doxorubicin co-treatment (AID 601); conditions: H69AR cells + 2 uM doxorubicin, CellTiter-Glo, 72 h; at 10 µM; stronger effect = higher value
Your answer is read as %, so omit the unit and give the number.

Here's what some known entries look like.
{"compound": "O=C(NC12CC3CC(CC(C3)C1)C2)N1CCN(C(=O)C2CCCO2)CC1 (stereo unspecified)", "assay endpoint": "differential viability (reversal)", "value units": "%", "meas value": 11.2}
{"compound": "NC(=O)c1c(NC(=O)Cc2cccs2)sc2c1CCC2", "assay endpoint": "differential viability (reversal)", "value units": "%", "meas value": 3.05}
{"compound": "COC(=O)[C@H](CCSC)NC(=O)Nc1cc(C)ccc1C", "assay endpoint": "differential viability (reversal)", "value units": "%", "meas value": -7.82}
{"compound": "Cc1nc2ncnn2c(N2CCC(C(=O)NCC3CCCO3)CC2)c1Cc1ccccc1 (stereo unspecified)", "assay endpoint": "differential viability (reversal)", "value units": "%", "meas value": -6.76}
{"compound": "C=CCn1c(Br)nc2c1c(=O)[nH]c(=O)n2C", "assay endpoint": "differential viability (reversal)", "value units": "%", "meas value": 6.37}

Give its differential viability (reversal) value. Item: CCn1c(SCC(=O)Nc2ccc3c(c2)OCO3)nnc1-c1ccccc1O
13.5

Again, but for Clc1ccc(OCCCn2cncn2)cc1Cl
-6.33

Again, but for Cc1ccc(S(=O)(=O)N2CCN(C(=O)CSC3CCCC3)CC2)c(C)c1
-7.29

Again, but for Cc1ccc(OCC2Cn3c(nc4c3c(=O)n(C)c(=O)n4C)O2)cc1 (stereo unspecified)
-3

Again, but for CCSc1nnc(NC(=O)c2ccccn2)s1
-14

Again, but for CCN1CCN(Cc2nc3c(c(=O)[nH]c(=O)n3C)n2Cc2ccccc2Cl)CC1
-4.17

Again, but for CCOC(=O)c1sc(NC(=O)CSc2nnc(-c3ccc(OC)cc3)n2CCOC)nc1C
21.8

Again, but for COC(=O)C1(C)NC(c2cccs2)C2C(=O)N(c3ccccc3F)C(=O)C21 (stereo unspecified)
4.93

Again, but for Clc1ccccc1-c1nnc2sc(-c3ccccn3)nn12
8.48

Again, but for NC(=O)c1ccsc1NC(=O)COC(=O)Cc1ccsc1
-0.11

Again, but for CCN1CCc2c(C#N)c(N3CCCCC3)nc(NCc3ccccc3)c2C1
-10.1

Again, but for Cn1c(Cc2csc(N)n2)nnc1SCC(=O)NC1CCCCC1
-5.84

====

assay: reversal of MRP1-mediated doxorubicin resistance, pilot screen, H69AR cells, doxorubicin co-treatment (AID 601); conditions: H69AR cells + 2 uM doxorubicin, CellTiter-Glo, 72 h; measured here: viability with 2 uM doxorubicin; at 10 µM; stronger effect = lower value
Entries and their viability values follow.
Your answer is read as %, so omit the unit and give the number.

Here's what some known entries look like.
{"molecule": "NCc1ccc(S(N)(=O)=O)cc1", "viability [%]": 92.1}
{"molecule": "CCOC(=O)c1sc(NS(=O)(=O)c2ccc(NC(C)=O)cc2)nc1C", "viability [%]": 88.1}
{"molecule": "COc1cccc(NC(=O)N(Cc2ccco2)C(C)c2cccs2)c1 (stereo unspecified)", "viability [%]": 73}
{"molecule": "O=C(CNC(=O)c1cccs1)NCCN1CCN(c2ccccc2F)CC1", "viability [%]": 77.2}

Give its viability value. Item: Cc1ccc2cc(CN(Cc3ccc(F)cc3)Cc3nnnn3C3CCCC3)c(=O)[nH]c2c1
74.4

Again, but for COc1cc(NC(=O)Nc2cccc(C(C)=O)c2)cc(OC)c1OC
87.6

Again, but for Cn1c(=O)c2ncn(CC(=O)NCCOc3ccccc3)c2n(C)c1=O
84.2

Again, but for Cn1cnnc1Sc1nc2c(c(=O)n(C)c(=O)n2C)n1Cc1ccccc1Cl
92.4

Again, but for Cn1c(=O)cc(OCCCC(=O)N2CCCCC2)c2ccccc21
79.5

Again, but for CC(=O)c1cccc(NC(=O)NCc2ccco2)c1
86.2

Again, but for COc1ccccc1NC(=O)CSc1nnc(Cn2nnc(-c3ccccc3)n2)n1-c1ccccc1
92.8
